# Tested on: SK-MEL-28 melanoma
# assayRemarks: NCI tumour cell line growth inhibition, 48 h
Short version: TGI at least 50 µM is 1, less is -1.

// inclusive: TGI at least 50 µM? input: C[C@@H]1CN(CC(=O)N2CC(C)(C)c3nc(CO)c(Cc4ccc(F)cc4)cc32)[C@@H](CN2CCOC[C@H]2C)CN1
-1

Has COC(=O)c1c(C)cccc1CC1Cc2c(C)cccc2C1=O (stereo unspecified) a recorded TGI greater than or equal to 50 µM?
1

Threshold query (TGI >= 50 µM) on CCN(Cc1ccccc1OC)c1ccc(CO)c(Cl)c1
-1

Quick check, TGI >= 50 µM? COc1cc(Nc2nc(N[C@H]3CCCC[C@@H]3N)nc3cc[nH]c(=O)c23)cc(OC)c1
-1

Quick check, TGI >= 50 µM? O=C(CCl)N1c2ccccc2Sc2c1ccc1ccccc21
-1

Would you say NCc1ccc(C(=O)O)cc1 shows TGI at minimum 50 µM?
1

hey, is TGI for this one >= 50 µM? Brc1ccc2[nH]cc(-c3nc(-c4c[nH]c5ccccc45)cs3)c2c1
-1

Reported TGI at or above 50 µM? CSc1ccc(/C=C2\N=C(c3ccccc3)N(c3nc4ccc(Sc5ccccc5)cc4[nH]3)C2=O)cc1
1

Is reported TGI greater than or equal to 50 µM here: CCOC(=O)C(=O)Nc1c(C)cccc1C
1

Does the compound NC(=O)N1N=C2c3ccccc3SC[C@H]2[C@@H]1c1ccccc1 have recorded TGI that is 50 µM or more?
1

Confirm if TGI reported for the compound S=c1[nH]c2ccc(Br)cc2c(=S)n1-c1ccccc1 is 50 µM or above.
1

###

# System: KM12 colon
# assayRemarks: NCI tumour cell line growth inhibition, 48 h
measuredMetric: TGI

# lookup: CC(=O)OCC1OC(n2ccc(=O)[nH]c2=O)C(OC(C)=O)C1OC(C)=O (stereo unspecified) on KM12 colon, TGI = > 100 µM

Field TGI (system: KM12 colon) for entry CN(C)c1ccc(N=Nc2ccccn2)cc1 = > 100 µM

The measured TGI that CN(C)c1ccc2cc(-c3ccccc3F)c(N)nc2c1 showed for KM12 colon is 14.9 µM

The observed TGI for CC1S(=O)(=O)OCCOS1(=O)=O when tested with KM12 colon stands at > 100 µM

Summary line: O=C(CSC(=S)N1CCOCC1)Nc1nc2c(s1)CCCC2 , KM12 colon, reported TGI = > 100 µM

TGI of c1ccc(-c2nn(-c3ccccc3)[n+](-c3ccccc3)n2)cc1 , assay on KM12 colon, is > 81.7 µM

Value (TGI, KM12 colon) for record Cc1cc2c3ccccc3n(C)c2c2c1C(=O)C=CC2=O = 33.6 µM

TGI for KM12 colon with input COc1ccc2c(c1)OC(N(C(C)=O)C(C)=O)=C(C#N)C2c1ccc(F)cc1 (stereo unspecified) equals > 100 µM

I looked up N#CC(C(=O)C(=O)NCCCNC(=O)C(=O)C(C#N)c1ccccc1)c1ccccc1 (stereo unspecified) and its TGI for KM12 colon was > 100 µM

// returns TGI for CN=S(=O)(c1ccccc1)c1ccccc1 with KM12 colon; value = > 100 µM

Fill in: KM12 colon TGI for C[C@@H]1CN(CC(=O)N2CC(C)(C)c3nc(CO)c(Cc4ccc(F)cc4)cc32)[C@@H](CN2CCOC[C@H]2C)CN1 = > 100 µM

###

# System: SK-MEL-5 melanoma
# assayRemarks: NCI tumour cell line growth inhibition, 48 h
measuredMetric: GI50

Per the records, this compound ( CN(C)c1ccc2cc(-c3ccccc3F)c(N)nc2c1 ) has GI50 equal to 1540 nM

In plain terms, Cn1ccnc1C(=O)/C=C/c1ccc(CC(=O)Nc2ccccc2)cc1 has a documented GI50 of 4180 nM

Value of GI50 reported for the compound C=C1CC[C@@H]2[C@](C)(COC(C)=O)[C@H](OC(C)=O)CC[C@@]2(C)[C@@H]1CC(Nc1ccc(S(=O)(=O)Nc2nccc(C)n2)cc1)C1=CCOC1=O (some centres not stated) is 3790 nM

Input O=C(CCl)N1c2ccccc2Sc2c1ccc1ccccc21 . Output GI50: 1730 nM

Value of GI50 reported for the compound CCN(Cc1ccccc1OC)c1ccc(CO)c(Cl)c1 is 6610 nM

The compound Clc1nc(Cl)c2c(ncn2C/C=C\Cn2cnc3c(Cl)nc(Cl)nc32)n1 showed GI50 equal to 1310 nM

Given item NC(C(=O)[O-])C(=O)[O-].NC1CCCCC1N.[Pt+4] , the value recorded as its GI50 is 1840 nM

Reported GI50 for COc1cc[nH]c1/C=C1\C(=O)Nc2ccc(F)c(I)c21 was > 25000 nM

In plain terms, COc1ccc(-c2cn(-c3ccccc3)c(-c3ccccc3)n2)cc1OC has a documented GI50 of 8030 nM

Record Nc1cc(N)c(N)cc1N . Reported GI50: 736 nM

# GI50 (compound: CN(C)C(=S)N=Nc1c(O)[nH]c2ccccc12 ) is 626 nM

GI50 reported for this compound CC(CNC(Cc1ccccc1)c1ccccc1)NC(Cc1ccccc1)c1ccccc1 (configuration not stated) : 1790 nM

###

# Tested on: OVCAR-5 ovarian
# assayRemarks: NCI tumour cell line growth inhibition, 48 h
Provide the recorded TGI for the entries that follow.

response.value for N#Cc1c(NC(=S)NC(=O)c2ccccc2)nc2c(c1-c1ccccc1)CCCC2 (field: TGI) = > 100 µM

get_value(item= COc1ccc(C2S/C(=C\c3ccc(O)cc3)C(=O)N2NC(=O)Cc2ccccc2)cc1 (stereo unspecified) , readout=TGI) returns > 100 µM

Value of TGI reported for the compound O=C(N/N=C\c1ccc2ccccc2c1)Nc1ccc([N+](=O)[O-])cc1 is 62.9 µM

response.value for COc1ccc(CC(C)N)cc1 (stereo unspecified) (field: TGI) = > 100 µM

Item: CC(C)(Br)C1(O)CCCN1C(=O)c1ccccc1 (stereo unspecified) | TGI: > 100 µM

TGI reported for this compound CC(=O)OC1c2ccccc2CCCCCCC12OCCO2 (stereo unspecified) : > 100 µM

Quick note, TGI for CNC1=CC(=O)C2=C(C1=O)[C@H]1CC[C@]3(C)C(=O)CC[C@H]3[C@@H]1CC2 landed at 51 µM

So, Cc1cc2c(c(C=NCc3ccccc3)c1)OC1(C=C2)Oc2ccccc2C(=O)N1C (stereo unspecified) ? Its TGI was 56 µM

Value of measured TGI for the entry Nc1nc2c(c(=O)[nH]1)CN(c1ccc(S(N)(=O)=O)cc1)CN2 : > 100 µM

Lab note: CC1C[C@]2(C)C(=O)N(c3ccccc3)C(=N)[C@@H]2N(C)c2ccccc21 (stereo partly specified) gave TGI of > 100 µM

Per the record, COc1cc[n+](C)cc1 has TGI of > 100 µM

###

# Test system: SK-MEL-5 melanoma
# assayRemarks: NCI tumour cell line growth inhibition, 48 h
measuredMetric: TGI (µM)
Respond numerically; units are µM and should not be typed.

Just so you know, measured TGI for O=C1/C(=C/c2ccc(O)cc2)COc2ccc(-c3ccccc3)cc21 came out at 22.9

Documented TGI of CCC(C)C(=O)c1c(O)c(C/C=C(\C)CCC=C(C)C)c(O)c2c(C(O)CC)cc(=O)oc12 (stereo not given) : 2.74

Looking up C[C@@H]1COCCN1c1cc(C2(S(C)(=N)=O)CC2)nc(-c2ccnc3[nH]ccc23)n1 (stereo not given in full) , I see its TGI listed as 35

Value of measured TGI for the entry Cn1c2ccccc2c(=NNc2ccc(C(=O)O)cc2)c2ccccc21 : 32.7

###

Could you please report measured TGI for the items listed next?
# Test system: IGROV1 ovarian
# assayRemarks: NCI tumour cell line growth inhibition, 48 h
Report only the number, with the unit µM understood.

molecule CN(C)c1ccc2cc(-c3ccccc3F)c(N)nc2c1 , TGI observed: 24.4

Noted for CN(C)CCOc1ccc2c(c1)C/C(=C/c1ncc([N+](=O)[O-])n1C)C2=O : its TGI reads 1.49

TGI recorded for this molecule, NC(=O)N1N=C2c3ccccc3SC[C@H]2[C@@H]1c1ccccc1 , is 68.4

The value of TGI measured for the molecule C=C1CC[C@@H]2[C@](C)(COC(C)=O)[C@H](OC(C)=O)CC[C@@]2(C)[C@@H]1CC(Nc1ccc(S(=O)(=O)Nc2nccc(C)n2)cc1)C1=CCOC1=O (some centres undefined) turned out to be 13.6

Kindly note the recorded TGI for O=C(CSCC(=O)N/N=C\c1ccc(-c2ccccc2)cc1)N/N=C\c1ccc(-c2ccccc2)cc1 , which is 29.2

In plain terms, COc1cc(Cn2c3c(c4c(C(=O)NCCN(C)C)c(O)ccc42)C(=O)c2ccccc2C3=O)cc(OC)c1 has a documented TGI of 3.22

TGI measured on Nc1nc(Cl)cc(Nc2cc(Cl)cc(Cl)c2)n1 = 35.4

Please fill in: TGI reported for CCC1C(c2cc(OC)c(OC)c(OC)c2)c2cc3c(cc2OC1N1CCOCC1)OCO3 (centres undefined) = 17.4

response.value for CN(CCOc1ccc(C#N)cc1)CCOc1ccc(C#N)cc1 (field: TGI) = 24.7

For this molecule ( COc1cc(CNc2ccc(C(C)C)cc2)cc(OC)c1OC ), measured TGI is 70

Per the record, COc1ccc2oc3cccc(NCCN(C)C)c3c(=O)c2c1 has TGI of 31.2

Form field TGI, entry CC1OC2CC(=O)OC2C2=C1C(=O)c1c(O)c3c(c(O)c1C2=O)C1CC(O)C3(O)C(C)O1 (centres undefined) : 1.7
